Target: STING (Homo sapiens, UniProt Q86WV6, G230A/H232R/R293Q/R71H)
Sequence (Q86WV6 whole entry R71H/G230A/H232R/R293Q): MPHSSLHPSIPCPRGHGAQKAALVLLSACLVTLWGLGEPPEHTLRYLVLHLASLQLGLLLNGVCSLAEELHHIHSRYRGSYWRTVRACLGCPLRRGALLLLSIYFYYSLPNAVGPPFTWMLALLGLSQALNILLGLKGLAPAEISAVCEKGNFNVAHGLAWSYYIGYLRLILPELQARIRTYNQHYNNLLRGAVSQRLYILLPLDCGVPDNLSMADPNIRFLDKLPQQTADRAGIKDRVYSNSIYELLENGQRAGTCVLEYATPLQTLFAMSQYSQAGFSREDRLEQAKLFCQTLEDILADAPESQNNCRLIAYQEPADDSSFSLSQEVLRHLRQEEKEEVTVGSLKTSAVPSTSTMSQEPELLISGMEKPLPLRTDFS
Assay: STING reporter assay: luciferase reporter activity in THP1-Dual KO-IFNAR2 cells stimulated with 2'3'cGAMP
Details: 2′3′cGAMP 15 μM final, 24h, read-out: hSTING: EC50
Provide the reported EC50 of each item.

## Task Entry under review: `O=C(NC[C@@H]1CC12CCCCC2)C(=O)Nc1c[nH]c2cc(F)c(F)cc12` . Reported EC50?
## Result 200 to 1000 nM

## Task Entry under review: `O=C(Nc1ccc(C2CCC(F)(F)CC2)nc1)C(=O)Nc1c[nH]c2cc(F)c(F)cc12` . Reported EC50?
## Result 200 to 1000 nM

## Task Entry under review: CC(C)(C)OC(=O)N1CCC2(CC1)CC(NC(=O)C(=O)Nc1c[nH]c3cc(F)c(F)cc13)CO2 (centres unmarked) . Reported EC50?
## Result 1000 to 5000 nM

## Task Entry under review: O=C(NCC(c1ccccc1)C(F)F)C(=O)Nc1c[nH]c2cc(F)c(F)cc12 (single isomer, unassigned) [Compound 347] . Reported EC50?
## Result 200 to 1000 nM

## Task Entry under review: `O=C(NCc1ccc(C(F)(F)F)c(Cl)c1)C(=O)Nc1c[nH]c2ccc(Br)cc12` . Reported EC50?
## Result 40 to 200 nM

## Task Entry under review: `CC(C)(C)OC(=O)N1CCC2(CCC(NC(=O)C(=O)Nc3c[nH]c4cc(F)c(F)cc34)CC2)CC1` . Reported EC50?
## Result 200 to 1000 nM

## Task Entry under review: O=C(Nc1c[nH]c2cc(F)c(F)cc12)C(=O)NC1CCCC2(CCCCC2)C1 (single isomer, unassigned) [Compound 258] . Reported EC50?
## Result 200 to 1000 nM

## Task Entry under review: `O=C(NCCOc1cccnc1)C(=O)Nc1c[nH]c2cc(F)c(F)cc12` . Reported EC50?
## Result 5000 to 100000 nM

## Task Entry under review: `O=C(NCc1ccnc(C(F)(F)F)c1)C(=O)Nc1c[nH]c2cc(F)c(F)cc12` . Reported EC50?
## Result 200 to 1000 nM

## Task Entry under review: `CN1CCOc2cc(NC(=O)C(=O)Nc3c[nH]c4cc(F)c(F)cc34)ccc21` . Reported EC50?
## Result 200 to 1000 nM

## Task Entry under review: Cc1cc2c(cn1)C(NC(=O)C(=O)Nc1c[nH]c3cc(F)c(F)cc13)CCC2 (centres unmarked) . Reported EC50?
## Result 200 to 1000 nM

## Task Entry under review: CCC(NC(=O)C(=O)Nc1c[nH]c2cc(F)c(F)cc12)c1cccc(C(F)(F)F)c1 (single isomer, unassigned) [Compound 236] . Reported EC50?
## Result 200 to 1000 nM

## Task Entry under review: O=C(Nc1c[nH]c2cc(F)c(F)cc12)C(=O)N[C@@H]1CCC[C@@H](Oc2ccc(C(F)(F)F)cc2)C1 (single isomer, unassigned) . Reported EC50?
## Result 200 to 1000 nM

## Task Entry under review: `O=C(NCCC1CCC(F)(F)CC1)C(=O)Nc1c[nH]c2cc(F)c(F)cc12` . Reported EC50?
## Result 200 to 1000 nM

## Task Entry under review: COCC(NC(=O)C(=O)Nc1c[nH]c2cc(F)c(F)cc12)c1ccccc1 (centres unmarked) . Reported EC50?
## Result 1000 to 5000 nM

## Task Entry under review: `O=C(NCC1(c2cccc(Cl)c2)CCOCC1)C(=O)Nc1c[nH]c2cc(F)c(F)cc12` . Reported EC50?
## Result 1000 to 5000 nM

## Task Entry under review: `O=C(NCc1cccc(N2CCCCC2)n1)C(=O)Nc1c[nH]c2cc(F)c(F)cc12` . Reported EC50?
## Result 200 to 1000 nM

## Task Entry under review: `O=C(Nc1c[nH]c2cc(F)c(F)cc12)C(=O)N[C@H]1CC[C@H](NCC(F)(F)F)CC1` . Reported EC50?
## Result 1000 to 5000 nM

## Task Entry under review: `O=C(Nc1c[nH]c2cc(F)c(F)cc12)C(=O)N[C@H]1C[C@H](Nc2ccc(C(F)(F)F)cn2)C1` . Reported EC50?
## Result 200 to 1000 nM

## Task Entry under review: O=C(Nc1c[nH]c2cc(F)c(F)cc12)C(=O)NC1CCC2(CCCC2)C1 (single isomer, unassigned) [Compound 245] . Reported EC50?
## Result 200 to 1000 nM
